Data origin, for the record: patent US20260242478A1

Target: T1, PSMA Fab (006 PSMA Fab) (biotinylated (site not stated))
T1 construct: also called Anti-PSMA Fab
Experiment notes: phage ELISA, clonal phage on biotinylated PSMA Fab captured on neutravidin plate, anti-M13 HRP detection;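 further: crude clonal phage supernatants added to wells preincubated with PSMA antigen in blocking buffer or with blocking buffer only, giving a competition and a no-competitor control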
Where no end group is shown, it is not given here.
Catalogue of Phage binding ELISA signal, Anti-PSMA Fab readings, one per entry.

Solved cases (10 shown):
• FEHWCTPEWMCLGM [Phage-2331] = 1.45
• ASNWCIPTWMCEGS [Phage-2335] = 1.44
• ELMWCIPPWMCEHS [Phage-2342] = 1.43
• SDTWCIPAWMCEGR [Phage-2343] = 1.43
• WYKWCTPAWMCEIS [Phage-2338] = 1.44
• TVKWCIPSWMCQQS [Phage-2333] = 1.44
• VVNWCVPEWMCSGF [Phage-2332] = 1.45
• EGISCVPNWMCVGF [Phage-2339] = 1.44
• EFIRCLPPWMCAGF (cysteine pairing not given here; also: displayed on bacteriophage by fusion to pIII) [Phage-2334] = 1.44
• PEKWCIPPWMCTNF (cysteine pairing not given here; also: displayed on bacteriophage by fusion to pIII) [Phage-2329] = 1.45

Phage binding ELISA signal, Anti-PSMA Fab for LVHMCKPAWMCTNL [Phage-2340] ?
1.44

Recorded Phage binding ELISA signal, Anti-PSMA Fab of EVKWCTPSWMCSGL [Phage-2330] , please.
1.45

# query: Phage binding ELISA signal, Anti-PSMA Fab of entry MVKLCIPEWMCDRQ [Phage-2337]
1.44

Would you kindly share the measured Phage binding ELISA signal, Anti-PSMA Fab for EPKWCTPAWMCSIV [Phage-2336] ?
1.44

// returns reported Phage binding ELISA signal, Anti-PSMA Fab for input GEIWCTPSWMCWGL [Phage-2341]
1.43
